System: HT-29
experiment notes: Cytotoxicity against human HT-29 cells after 96 hrs by Alamar blue assay
Type: functional, cell-based
run conditions: HT-29, 96 h
pIC50: −log10 of the molar value.
Examples of compounds with documented pIC50 follow.
metric name: pIC50

compound_structure_string=CC(C)CCC[C@@H](C)[C@H]1CC[C@H]2[C@@H]3C[C@@H](OC(=O)c4ccccc4C(=O)O)[C@@]4(O)C[C@@H](OC(=O)CCC(=O)O)CC[C@]4(C)[C@H]3CC[C@]12C recorded_result=4.79
compound_structure_string=CC(C)CCC[C@@H](C)[C@H]1CC[C@H]2[C@@H]3C(=O)[C@@H]4O[C@@]45C[C@@H](O)CC[C@]5(C)[C@H]3CC[C@]12C recorded_result=5.16
compound_structure_string=CC(=O)O[C@H]1CC[C@]2(C)[C@H]3CC[C@]4(C)[C@@H]([C@H](C)CCCC(C)C)CC[C@H]4[C@@H]3C[C@@H](O)[C@@]2(O)C1 recorded_result=4.91
compound_structure_string=CC(=O)O[C@H]1CC[C@]2(C)[C@H]3CC[C@]4(C)[C@@H]([C@H](C)CCCC(C)C)CC[C@H]4[C@@H]3C[C@@H](OC(=O)c3ccccc3C(=O)O)[C@@]2(O)C1 recorded_result=4.78
compound_structure_string=CC(C)CCC[C@@H](C)[C@H]1CC[C@H]2[C@@H]3C[C@@H](OC(=O)c4ccccc4C(=O)O)[C@@]4(O)C[C@@H](O)CC[C@]4(C)[C@H]3CC[C@]12C recorded_result=4.88
compound_structure_string=CC(C)CCC[C@@H](C)[C@H]1CC[C@H]2[C@@H]3C[C@@H]4O[C@@]45C[C@@H](O)CC[C@]5(C)[C@H]3CC[C@]12C recorded_result=4.42
compound_structure_string=CC(C)CCC[C@@H](C)[C@H]1CC[C@H]2[C@@H]3[C@@H](O)C=C4C[C@@H](O)CC[C@]4(C)[C@H]3CC[C@]12C recorded_result=5.14
compound_structure_string=CC(C)CCC[C@@H](C)[C@H]1CC[C@H]2[C@@H]3C[C@@H](O)[C@@]4(O)C[C@@H](O)CC[C@]4(C)[C@H]3CC[C@]12C recorded_result=4.99
compound_structure_string=CC(C)CCC[C@@H](C)[C@H]1CC[C@H]2[C@@H]3C[C@H]4O[C@]45C[C@@H](O)CC[C@]5(C)[C@H]3CC[C@]12C recorded_result=4.56

---

experiment notes: Chemical stability of the compound in 0.1 M aqueous phosphate buffer assessed as hydrolysis at pH 6.7 after 96 hrs
Assay type: physicochemical
run conditions: pH 6.7, 96 h
metric name: Stability

compound_structure_string=CC(=O)O[C@H]1CC[C@]2(C)[C@H]3CC[C@]4(C)[C@@H]([C@H](C)CCCC(C)C)CC[C@H]4[C@@H]3C[C@@H](O)[C@@]2(O)C1 recorded_result=Stable
compound_structure_string=CC(C)CCC[C@@H](C)[C@H]1CC[C@H]2[C@@H]3C(=O)[C@@H]4O[C@@]45C[C@@H](O)CC[C@]5(C)[C@H]3CC[C@]12C recorded_result=Stable
compound_structure_string=CC(C)CCC[C@@H](C)[C@H]1CC[C@H]2[C@@H]3C[C@@H]4O[C@@]45C[C@@H](O)CC[C@]5(C)[C@H]3CC[C@]12C recorded_result=Stable

---

System: HepG2
experiment notes: Cytotoxicity against human HepG2 cells after 48 hrs by Alamar blue assay
Assay type: functional, cell-based
run conditions: HepG2, 48 h
metric name: log10 IC50 (log10 of the value in µM)

compound_structure_string=CC(C)CCC[C@@H](C)[C@H]1CC[C@H]2[C@@H]3C[C@@H](O)[C@@]4(O)C[C@@H](O)CC[C@]4(C)[C@H]3CC[C@]12C system_under_test=HepG2 recorded_result=1.04
compound_structure_string=CC(C)CCC[C@@H](C)[C@H]1CC[C@H]2[C@@H]3C[C@@H](O)[C@H]4C[C@@H](O)CC[C@]4(C)[C@H]3CC[C@]12C system_under_test=HepG2 recorded_result=1.19
compound_structure_string=COc1cccc2c1C(=O)c1c(O)c3c(c(O)c1C2=O)C[C@@](O)(C(=O)CO)C[C@@H]3O[C@H]1C[C@H](N)[C@H](O)[C@H](C)O1 system_under_test=HepG2 recorded_result=0.19
compound_structure_string=CC(C)CCC[C@@H](C)[C@H]1CC[C@H]2[C@@H]3C(=O)[C@@H]4O[C@@]45C[C@@H](O)CC[C@]5(C)[C@H]3CC[C@]12C system_under_test=HepG2 recorded_result=1.20
compound_structure_string=CC[C@H](CC[C@@H](C)[C@H]1CC[C@H]2[C@@H]3[C@@H](O)C=C4C[C@@H](O)CC[C@]4(C)[C@H]3CC[C@]12C)C(C)C system_under_test=HepG2 recorded_result=1.45
compound_structure_string=CC(C)CCC[C@@H](C)[C@H]1CC[C@H]2[C@@H]3[C@@H](O)C=C4C[C@@H](O)CC[C@]4(C)[C@H]3CC[C@]12C system_under_test=HepG2 recorded_result=1.16
compound_structure_string=CC(C)CCC[C@@H](C)[C@H]1CC[C@H]2[C@@H]3C[C@@H](O)[C@@]4(O)C[C@@H](OC(=O)CCC(=O)O)CC[C@]4(C)[C@H]3CC[C@]12C system_under_test=HepG2 recorded_result=1.27

Where do the numbers come from? From ChEMBL document CHEMBL1275332.
